target: Delta-type opioid receptor (Rattus norvegicus, UniProt P33533); experiment: Binding affinity for Opioid receptor delta 1 determined by displacing [3H]-DSLET from rat brain membrane binding sites
Sequence (P33533 whole entry): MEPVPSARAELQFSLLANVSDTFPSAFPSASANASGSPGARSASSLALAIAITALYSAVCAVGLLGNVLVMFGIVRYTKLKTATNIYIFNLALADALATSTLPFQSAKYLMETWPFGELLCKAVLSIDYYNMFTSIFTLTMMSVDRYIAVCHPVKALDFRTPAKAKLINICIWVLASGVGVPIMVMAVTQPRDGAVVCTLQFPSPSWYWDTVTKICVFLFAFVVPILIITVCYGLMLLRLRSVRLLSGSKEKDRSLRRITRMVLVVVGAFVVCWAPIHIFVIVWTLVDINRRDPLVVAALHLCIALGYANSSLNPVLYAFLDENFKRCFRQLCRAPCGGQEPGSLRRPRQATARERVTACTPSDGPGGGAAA
Square brackets hold non-standard residues; d marks the D form. Peptide text beside a SMILES is read from it. NMeDmt = CN[C@@H](Cc1c(C)cc(O)cc1C)C(=O)O; Tic = O=C(O)[C@@H]1Cc2ccccc2CN1
metric: Ki (nM)
Quick reminder: number only, in nM, skip the unit.

>>> reading("CN[C@@H](Cc1c(C)cc(O)cc1C)C(=O)N1Cc2ccccc2CC1CN[C@@H](Cc1ccccc1)C(=O)N[C@@H](Cc1ccccc1)C(N)=O (some centres not stated)")
61

Bench note: what Ki did CN[C@@H](Cc1c(C)cc(O)cc1C)C(=O)N1Cc2ccccc2C[C@H]1C(=O)N[C@@H](Cc1ccccc1)C(=O)N[C@@H](Cc1ccccc1)C(N)=O (H-[NMeDmt][Tic]FF-NH2) show? 0.393

Attribution: ChEMBL document CHEMBL1132372
